Examples of compounds with documented Population Membrane Permeable-Phenotype (%) follow.
system: HEK-293T; assay: Multiplex assay against HEK293T; format: toxicity, cell-based; conditions: human, 12 h, 1 µM, compound concentration 1 uM, replicate 1
Give just the number in %; leave the unit off.

Answered examples (7):
- compound: "Cc1c(Nc2ccc(S(=O)(=O)N3CCN(C)CC3)cc2F)nc2ccc(-c3cnn(C4CC4)c3)cn2c1=O"
  measurement: 4
- compound: "CC(/C=C1\\SC(=S)N(CCCC(=O)Nc2ccc(C(=O)O)c(O)c2)C1=O)=C\\c1ccccc1"
  measurement: 3
- compound: "CN1C(=O)[C@@H](NC(=O)c2cc3ccccc3[nH]2)N=C(c2ccccc2)c2ccccc21 [DEVAZEPIDE]"
  measurement: 8
- compound: "CCCCCNC(=N)N/N=C/c1c[nH]c2ccc(OC)cc12.O=C(O)/C=C\\C(=O)O [TEGASEROD MALEATE]"
  measurement: 4
- compound: "Oc1cccc(-c2nc(N3CCOCC3)c3oc4ncccc4c3n2)c1"
  measurement: 2
- compound: "CCCc1cc(C)[nH]c(=O)c1CNC(=O)c1cc(-c2ccc(N3CCN(C(C)C)CC3)nc2)cc2c1cnn2C(C)C"
  measurement: 9
- compound: "CCOc1ccn(-c2ccc(F)cc2)c(=O)c1C(=O)Nc1ccc(Oc2ccnc(N)c2Cl)c(F)c1"
  measurement: 6

QUERY: Any idea what its Population Membrane Permeable-Phenotype (%) is? The compound is `N#Cc1cccc(C(=O)Nc2cc(-c3ccccc3)nn2-c2ccccc2)c1`
RESULT: 2
